// provenance: patent US20190352288A1

biological target: recombinant human MMP-3 (Homo sapiens); test: MMP selectivity assay, MMP-3; conditions: Table 2 selectivity profile
Sequence (P08254 100-477): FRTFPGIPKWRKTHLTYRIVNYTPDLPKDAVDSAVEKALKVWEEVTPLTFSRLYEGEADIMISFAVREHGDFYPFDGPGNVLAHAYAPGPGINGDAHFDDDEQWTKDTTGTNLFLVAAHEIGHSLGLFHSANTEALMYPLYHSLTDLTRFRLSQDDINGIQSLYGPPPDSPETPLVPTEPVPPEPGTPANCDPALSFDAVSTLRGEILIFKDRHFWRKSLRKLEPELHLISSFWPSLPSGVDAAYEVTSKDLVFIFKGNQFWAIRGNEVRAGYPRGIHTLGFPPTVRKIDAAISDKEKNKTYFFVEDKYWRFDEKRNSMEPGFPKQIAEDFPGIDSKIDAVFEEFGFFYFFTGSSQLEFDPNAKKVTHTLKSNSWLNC
IC50 by entry:

[
  {
    "molecule": "O=C1NC(=O)C(c2cnccc2Sc2ccc(OCc3cccc(O)c3)cc2)N1 (stereo not drawn)",
    "target.or.system": "recombinant human MMP-3 (Homo sapiens)",
    "IC50": "1000 to 10000 nM"
  },
  {
    "molecule": "Cc1cc(COc2ccc(Sc3ccncc3C3NC(=O)NC3=O)c(F)c2)ccn1 (stereo not drawn)",
    "target.or.system": "recombinant human MMP-3 (Homo sapiens)",
    "IC50": "100 to 1000 nM"
  },
  {
    "molecule": "Cc1cc(COc2ccc(Sc3ccncc3C3NC(=O)NC3=O)c(Cl)c2)ccn1 (stereo not drawn)",
    "target.or.system": "recombinant human MMP-3 (Homo sapiens)",
    "IC50": "1000 to 10000 nM"
  },
  {
    "molecule": "Cc1cc(COc2ccc(Sc3ccncc3C3NC(=O)NC3=O)cc2C)ccn1 (stereo not drawn)",
    "target.or.system": "recombinant human MMP-3 (Homo sapiens)",
    "IC50": "1000 to 10000 nM"
  },
  {
    "molecule": "O=C1NC(=O)C(c2cnccc2Sc2ccc(OCc3cccc(CO)c3)cc2)N1 (stereo not drawn)",
    "target.or.system": "recombinant human MMP-3 (Homo sapiens)",
    "IC50": "1000 to 10000 nM"
  },
  {
    "molecule": "O=C1NC(=O)C(c2ccncc2Sc2ccc(OCc3ccccc3CO)cc2)N1 (stereo not drawn)",
    "target.or.system": "recombinant human MMP-3 (Homo sapiens)",
    "IC50": "100 to 1000 nM"
  },
  {
    "molecule": "Cc1cc(COc2ccc(Sc3ncn(C)c3C3NC(=O)NC3=O)cc2)ccn1 (stereo not drawn)",
    "target.or.system": "recombinant human MMP-3 (Homo sapiens)",
    "IC50": "1000 to 10000 nM"
  },
  {
    "molecule": "NC(=O)c1cccc(COc2ccc(Sc3ccncc3C3NC(=O)NC3=O)cc2)c1 (stereo not drawn)",
    "target.or.system": "recombinant human MMP-3 (Homo sapiens)",
    "IC50": "1000 to 10000 nM"
  },
  {
    "molecule": "Cc1cc(COc2ccc(Sc3cnn(C)c3C3NC(=O)NC3=O)cc2)ccn1 (stereo not drawn)",
    "target.or.system": "recombinant human MMP-3 (Homo sapiens)",
    "IC50": "1000 to 10000 nM"
  }
]
